Values from patent US10682371B2

Tested on: D121 lung tumor cells
Format: in vivo, C57 mice
Conditions: D121 immunized C57 mice, 13.2 μmol/kg weekly; PDL1 antibody 5 μg/kg where combined; Day 18
For each of the compounds below, state its Size of tumor (mm^3) Day 18.
Express your answer in mm^3, writing the number without its unit.

Which Size of tumor (mm^3) Day 18 is listed for COc1cccc2c1C(=O)c1c(O)c3c(c(O)c1C2=O)C[C@@](O)(C(C)=O)C[C@@H]3O[C@H]1C[C@H](N)[C@H](O)[C@H](C)O1 ?
1063.86

Same thing, different compound: CCCCCOC(=O)Nc1nc(=O)n([C@@H]2O[C@H](C)[C@@H](OC(=O)OCc3ccc(NC(=O)[C@H](CC(N)=O)NC(=O)[C@H](C)NC(=O)[C@H](C)NC(=O)CCCCCCC(=O)NO)cc3)[C@H]2O)cc1F
425.67

Same thing, different compound: CCCCCOC(=O)Nc1nc(=O)n([C@@H]2O[C@H](C)[C@@H](O)[C@H]2O)cc1F
953.65

---

System: Human prostate cancer PC-3 cells / Panc-1 cells
Assay: Tumor treatment in nude mice (PC-3 cells purchased, Panc-1 cells injected; Examples 22, 32, 42)
Type: in vivo
Conditions: compared with parent drug group (same molar concentration) and control group

# Compound, Subject Of Test, Inhibition on tumor growth, in words
data = [
    ("COCCOCC(=O)NCCCC[C@H](NC(=O)COCCOC)C(=O)N[C@H](C)C(=O)N[C@H](C)C(=O)N[C@H](CC(N)=O)C(=O)Nc1ccc(COC(=O)OC(C(=O)OC2C[C@@]3(O)[C@@H](OC(=O)c4ccccc4)[C@H]4[C@](C)(C(=O)[C@H](O)C(=C2C)C3(C)C)[C@@H](O)CC2OC[C@]24OC(C)=O)[C@@H](NC(=O)OC(C)(C)C)c2ccccc2)cc1 (stereo partly drawn)", "Human prostate cancer PC-3 cells / Panc-1 cells", "greatly improved"),
    ("COCCOCCOCCOCCOCCOCCOCCOCCOCCOCCOCCOCC(=O)N[C@H](C)C(=O)N[C@H](C)C(=O)N[C@H](CC(N)=O)C(=O)Nc1ccc(COC(=O)OC(C(=O)OC2C[C@@]3(O)[C@@H](OC(=O)c4ccccc4)[C@H]4[C@](C)(C(=O)[C@H](OC(C)=O)C(=C2C)C3(C)C)[C@@H](O)CC2OC[C@]24OC(C)=O)[C@@H](NC(=O)c2ccccc2)c2ccccc2)cc1 (stereo partly drawn)", "Human prostate cancer PC-3 cells / Panc-1 cells", "greatly improved"),
    ("COCCOCCOCCOCCOCCOCCOCCOCCOCCOCCOCCOCC(=O)NCCCC[C@H](NC(=O)COCCOCCOCCOCCOCCOCCOCCOCCOCCOCCOCCOC)C(=O)N[C@H](C)C(=O)N[C@H](C)C(=O)N[C@H](CC(N)=O)C(=O)Nc1ccc(COC(=O)OC(C(=O)OC2C[C@@]3(O)[C@@H](OC(=O)c4ccccc4)[C@H]4[C@](C)(C(=O)[C@H](OC(C)=O)C(=C2C)C3(C)C)[C@@H](O)CC2OC[C@]24OC(C)=O)[C@@H](NC(=O)c2ccccc2)c2ccccc2)cc1 (stereo partly drawn)", "Human prostate cancer PC-3 cells / Panc-1 cells", "greatly improved"),
]

---

Tested on: D121 lung tumor cells
Format: in vivo, C57 mice
Settings: D121 immunized C57 mice, 13.2 μmol/kg weekly; PDL1 antibody 5 μg/kg where combined; Day 18
Procedure: 1) D121 lung tumor cells were purchased from ATCC. Cells were cultivated in DMEM culture solution containing 10% fetal bovine serum at 37° C. and 5% CO2. The cells were passaged for every three days and cells within the 15th passage were used. 2) Tumor immunization. 5×10^5 D121 lung cancer cells (purchased from ATCC) which were killed by irradiation were intraperitoneally injected to mice. […] 3) Production of tumor. […] Tumor size (mm^3) were noted and tumor inhibition rates were calculated. […]
Measure: Size of tumor (mm^3) Day 18
Express your answer in mm^3, writing the number without its unit.

Which Size of tumor (mm^3) Day 18 is listed for COCCOCC(=O)N[C@H](C(=O)N[C@@H](C)C(=O)N[C@@H](CC(N)=O)C(=O)Nc1ccc(COC(=O)N[C@H]2C[C@H](O[C@H]3C[C@](O)(C(C)=O)Cc4c(O)c5c(c(O)c43)C(=O)c3c(OC)cccc3C5=O)O[C@@H](C)[C@H]2O)cc1)C(C)O (stereo partly drawn) ?
316.78

Same thing, different compound: COc1cccc2c1C(=O)c1c(O)c3c(c(O)c1C2=O)C[C@@](O)(C(C)=O)C[C@@H]3O[C@H]1C[C@H](NC(=O)OCc2ccc(NC(=O)[C@H](CC(N)=O)NC(=O)[C@H](C)NC(=O)[C@H](C)NC(=O)CCCCCN3C(=O)C=CC3=O)cc2)[C@H](O)[C@H](C)O1
379.75

Same thing, different compound: CC[C@@]1(O)C(=O)OCc2c1cc1n(c2=O)Cc2cc3ccccc3nc2-1
889.56

---

Test system: BALB/C mice
Test: Maximum tolerated dose (MTD) / acute toxicity by single intravenous injection
Settings: single intravenous injection, 150 mg/kg, 10 BALB/C mice per group
Measure: Number of dead animal
# respond with the number and nothing more

Which Number of dead animal is listed for COCCOCC(=O)N[C@H](C)C(=O)N[C@H](C)C(=O)N[C@H](CC(N)=O)C(=O)Nc1ccc(COC(=O)OC(C(=O)OC2C[C@@]3(O)[C@@H](OC(=O)c4ccccc4)[C@H]4[C@](C)(C(=O)[C@H](O)C(=C2C)C3(C)C)[C@@H](O)CC2OC[C@]24OC(C)=O)[C@@H](NC(=O)OC(C)(C)C)c2ccccc2)cc1 (stereo partly shown) [Compound D1] ?
0
